System: Plasmodium falciparum NF54/iGP1_RE9H ulg8 stage V gametocytes
Assay: gametocyte viability (luciferase signal relative to DMSO control) (% of DMSO control); higher = less gametocytocidal activity, active = 50 or less
Conditions: concentration: 1 µM; exposure time: 72 h
metric: gametocyte viability

Example entries begin here.
O=C(/C=C/c1cccc(C(=O)NO)c1)NO	89.2 (inactive)
CCCCN(Cc1ccc(C(=O)NO)cc1)C(=O)Nc1ccccc1	103 (inactive)
COc1cc2c(NC3CCN(CC4CCCCC4)CC3)nc(N3CCCN(C(C)C)CC3)nc2cc1OCCCN1CCCCC1	60.9 (inactive)
CC(C)N(CCCNC(=O)Nc1ccc(C(C)(C)C)cc1)C[C@H]1O[C@@H](n2cc(Br)c3c(N)ncnc32)[C@H](O)[C@@H]1O	88 (inactive)

Now let's try a different one.
Retrieve gametocyte viability measured for `COc1cc2c(NC3CCN(C(C)C)CC3)nc(C3CCCCC3)nc2cc1OCCCN1CCCC1` and print it. 77.7 (inactive)

###

Tested on: Plasmodium falciparum NF54/iGP1_RE9H ulg8 stage V gametocytes
Assay: gametocyte viability (luciferase signal relative to DMSO control) (% of DMSO control); higher = less gametocytocidal activity, active = 50 or less
Details: concentration: 1 µM; exposure time: 72 h
metric: gametocyte viability
Lab note: jot the number down without any unit.

N#CC(=C(/N)Sc1ccccc1N)/C(C#N)=C(/N)Sc1ccccc1N	100
O=C1NC(=O)/C(=C/c2ccc3c(c2)OC(F)(F)O3)S1	103
Cn1cnc2nc(NCCO)nc(NCc3ccccc3)c21	95

With those in mind, consider the next compound.
Determine its reported gametocyte viability: `Cc1c(NC(=O)OC[C@@H]2COCCN2)cn2ncnc(Nc3ccc4c(cnn4Cc4cccc(F)c4)c3)c12` 85.8

###

Test system: Plasmodium falciparum NF54/iGP1_RE9H ulg8 stage V gametocytes
Test: gametocyte viability (luciferase signal relative to DMSO control) (% of DMSO control); higher = less gametocytocidal activity, active = 50 or less
Conditions: concentration: 10 µM; exposure time: 72 h
Where a name gives a salt, the structure may show the parent alone.
Reported gametocyte viability by item:
Output spec: single numeric token, no unit.

Answered cases to consult:
CNC(=O)c1cc(Oc2ccc(NC(=O)Nc3ccc(Cl)c(C(F)(F)F)c3)cc2)ccn1 [Sorafenib (Nexavar)]	115
Cn1cnc2c(F)c(Nc3ccc(Br)cc3Cl)c(C(=O)NOCCO)cc21 [AZD6244 (Selumetinib)]	105
CC[C@@H]1C(=O)N(C)c2cnc(Nc3ccc(C(=O)N[C@H]4CC[C@H](N5CCN(CC6CC6)CC5)CC4)cc3OC)nc2N1C(C)C [BI6727 (Volasertib)]	61.9
COc1cc2ncnc(Nc3ccc(F)c(Cl)c3)c2cc1OCCCN1CCOCC1 [Gefitinib (Iressa)]	92.8

Identify measured gametocyte viability corresponding to `CO[C@@H]1[C@H](N(C)C(=O)c2ccccc2)C[C@H]2O[C@]1(C)n1c3ccccc3c3c4c(c5c6ccccc6n2c5c31)C(=O)NC4` 95.9

Quick one: give measured gametocyte viability for `Cc1cc(Nc2nc(N[C@@H](C)c3ncc(F)cn3)ncc2Cl)[nH]n1` 95.5

Kindly indicate its recorded gametocyte viability. Item: `Nc1ncnc2c1c(-c1cnc3[nH]ccc3c1)nn2C1CCCC1` 116

Given the molecule N=C(N)NC(=N)NCCc1ccccc1 [Phenformin hydrochloride] , write its reported gametocyte viability. 111

###

Tested on: Plasmodium falciparum NF54/iGP1_RE9H ulg8 stage V gametocytes
Test: gametocyte viability (luciferase signal relative to DMSO control) (% of DMSO control); higher = less gametocytocidal activity, active = 50 or less
Settings: concentration: 10 µM; exposure time: 72 h
Structures can show the parent of a compound that is named as a salt.
# strict inequality: gametocyte viability < 90 yields yes, everything else yields no

CCOC(=O)C1=CN(Cc2ccccc2)C=C(C(=O)OCC)C1c1ccccc1	yes

Is the reported gametocyte viability for CN1CCN(C(=O)CNC2CC2c2ccc(OCc3ccccc3)cc2)CC1 (stereo not given) [RN-1 (hydrochloride)] strictly below 90? yes

Report whether reported gametocyte viability is lower than 90 (strictly) for `Nc1ccccc1NC(=O)CCCCCC(=O)Nc1ccccc1` no

Find out if reported gametocyte viability for `O=C(NC[C@H](O)CN1CCc2ccccc2C1)c1ccnc(NC2CCC2)c1` is less than 90 yes

Bench note: check whether `O=C(NCC(=O)N1CCCC1)Nc1ccc2cnccc2c1` shows gametocyte viability below 90 no

Decide: gametocyte viability of `COC(=O)c1ccc(N2CCN(C)CC2)c(NC(=O)c2cccc(OC)c2)c1` strictly below 90? yes

Lab note: gametocyte viability threshold 90. Does this compound come in strictly under it? CN=C(NC)NCCCNCCCNCCCNC(=NC)NC [Lysine-specific Demethylase Inhibitor (1C) (hydrochloride)] yes

Consider the compound CCCC(CCC)C(=O)O [Valproic Acid (sodium salt)] . Is its gametocyte viability strictly less than 90? yes

###

System: Plasmodium falciparum NF54/iGP1_RE9H ulg8 stage V gametocytes
Assay: gametocyte viability (luciferase signal relative to DMSO control) (% of DMSO control); higher = less gametocytocidal activity, active = 50 or less
Details: concentration: 1 µM; exposure time: 72 h
Counter-ions that a name gives are not always drawn.
Reported gametocyte viability values for a set of compounds
Answer with a number only.

Cc1ccc(Nc2nccc(N(C)c3ccc4c(C)n(C)nc4c3)n2)cc1S(N)(=O)=O [Pazopanib HCl]	98
Cc1ccc(C(=O)Nc2cccc(C(F)(F)F)c2)cc1Nc1nc(-c2cccnc2)nc2c1cnn2C	100

Supply reported gametocyte viability belonging to this compound: `COc1cc2nccc(Oc3ccc(NC(=O)Nc4cc(C)on4)c(Cl)c3)c2cc1OC` 94

// Input: CN1CC[C@H](c2c(O)cc(O)c3c(=O)cc(-c4ccccc4Cl)oc23)[C@H](O)C1 [Flavopiridol hydrochloride] . Output its gametocyte viability only. 106

###

System: Plasmodium falciparum NF54/iGP1_RE9H ulg8 stage V gametocytes
Experiment: gametocyte viability (luciferase signal relative to DMSO control) (% of DMSO control); higher = less gametocytocidal activity, active = 50 or less
Details: concentration: 10 µM; exposure time: 72 h
Structures can show the parent of a compound that is named as a salt.
metric: gametocyte viability
Kindly provide the number alone.

// Input: Nc1ccccc1NC(=O)c1ccc(CNc2nccc(-c3cccnc3)n2)cc1 [Mocetinostat] . Output its gametocyte viability only. 88.2

Tell me gametocyte viability reported for O=C([C@@H](Cc1cccc(C(F)(F)F)c1)NS(=O)(=O)c1cc(F)c2c(c1)CCNC2)N1CCCC1 [(R)-PFI-2 (hydrochloride)] 77.8

Provide gametocyte viability value for the following compound: `CN(C)Cc1c(C(=O)NCCOc2ccc(C(=O)NO)cc2)oc2ccccc12` 59

Read the entry Cc1ccc(NC2=CC(=O)c3sc(C)nc3C2=O)cc1 [Ryuvidine] and write its reported gametocyte viability. 19.2

Tell me its gametocyte viability given O=c1oc2c(O)c(O)cc3c(=O)oc4c(O)c(O)cc1c4c23 [Ellagic Acid] as the entry. 95.3

Give the reported gametocyte viability for this compound. `COc1ccccc1C(=O)Nc1cc2c(cc1N1CCCC1)n(C)c(=O)n2C` 65.1

Fill in reported gametocyte viability for this entry: COc1cccc2c1c(O)c(C(=O)N(C)c1ccc(C(F)(F)F)cc1)c(=O)n2C [Tasquinimod] 82.9

Consider the compound O=C(/C=C/C#Cc1cccc(NS(=O)(=O)c2ccccc2)c1)NO [Oxamflatin] . State its measured gametocyte viability. 168

Give me measured gametocyte viability, please, for this compound: O=C(O)CNC(=O)C(=O)O [N-Oxalylglycine] 85.3

###

Test system: Plasmodium falciparum NF54/iGP1_RE9H ulg8 stage V gametocytes
Test: gametocyte viability (luciferase signal relative to DMSO control) (% of DMSO control); higher = less gametocytocidal activity, active = 50 or less
Settings: concentration: 1 µM; exposure time: 72 h
Counter-ions that a name gives are not always drawn.
metric: gametocyte viability

Nc1nc(=S)c2[nH]cnc2[nH]1 [6-Thioguanine]	90.1 (inactive)
O=C(O)CNC(=O)C(=O)O [N-Oxalylglycine]	87.3 (inactive)
Nc1cc(F)ccc1NC(=O)c1ccc(CNC(=O)/C=C/c2cccnc2)cc1 [Chidamide]	92.7 (inactive)
O=C(Nc1cccc(Br)c1)c1cccc(S(=O)(=O)N2CCCCCC2)c1	85.8 (inactive)
COc1cc2c(NC3CCN(C)CC3)nc(N3CCCN(C)CC3)nc2cc1OCCCN(C)C	89.8 (inactive)
O=C(CCCCCCC(=O)Nc1ccccc1)NO	86.4 (inactive)
Nc1ccccc1NC(=O)c1cnccn1	96.3 (inactive)
Nc1ccccc1NC(=O)c1ccc(CNc2nccc(-c3cccnc3)n2)cc1 [Mocetinostat]	89.7 (inactive)

Please respond with reported gametocyte viability (system Plasmodium falciparum NF54/iGP1_RE9H ulg8 stage V gametocytes) for `Cc1noc(C)c1-c1ccc(-c2nc3cnccn3c2NC(C)(C)C)cc1` . 84.1 (inactive)

Retrieve gametocyte viability on Plasmodium falciparum NF54/iGP1_RE9H ulg8 stage V gametocytes; query `Nc1cc(F)ccc1NC(=O)/C=C/c1cnn(C/C=C/c2ccccc2)c1` 98 (inactive)

Please look at `O=C(NCC(=O)N1CCCC1)Nc1ccc2cnccc2c1` and tell me its recorded gametocyte viability on Plasmodium falciparum NF54/iGP1_RE9H ulg8 stage V gametocytes. 91.7 (inactive)

Report measured gametocyte viability on Plasmodium falciparum NF54/iGP1_RE9H ulg8 stage V gametocytes; entry: `C/C(=N\NC(=O)c1cccc(S(=O)(=O)N2CCOCC2)c1)c1cc(Cl)ccc1O` 89.1 (inactive)

State, for Plasmodium falciparum NF54/iGP1_RE9H ulg8 stage V gametocytes, measured gametocyte viability of the molecule listed here: `C#Cc1cccc(Nc2ncnc3cc(OC)c(OCCCCCCC(=O)NO)cc23)c1` 58.7 (inactive)

Fill: gametocyte viability (Plasmodium falciparum NF54/iGP1_RE9H ulg8 stage V gametocytes) for this molecule CCCc1cc2c(N3CCN(C4=NCC(C)(C)S4)CC3)ncnc2s1 [MI-2 (hydrochloride)] 80.6 (inactive)

Please look at O=C(/C=C/C#Cc1cccc(NS(=O)(=O)c2ccccc2)c1)NO [Oxamflatin] and tell me its recorded gametocyte viability on Plasmodium falciparum NF54/iGP1_RE9H ulg8 stage V gametocytes. 101 (inactive)

Would you please give the reported gametocyte viability of `O=C(NN=Cc1c(O)ccc2ccccc12)c1ccncc1` with Plasmodium falciparum NF54/iGP1_RE9H ulg8 stage V gametocytes? 84.7 (inactive)

Tell me its gametocyte viability on Plasmodium falciparum NF54/iGP1_RE9H ulg8 stage V gametocytes: `CN(C)c1ccc(C(=O)NCCCCCCC(=O)NO)cc1` 83.7 (inactive)

Provide Plasmodium falciparum NF54/iGP1_RE9H ulg8 stage V gametocytes gametocyte viability reading for `COc1cc(C#N)ccc1S(=O)(=O)Nc1ccc2c(c1)cc(C)c(=O)n2C` . 86.6 (inactive)

State, for Plasmodium falciparum NF54/iGP1_RE9H ulg8 stage V gametocytes, measured gametocyte viability of the molecule listed here: `Nc1c(S(=O)(=O)c2ccccc2)c2nc3ccccc3nc2n1-c1ccc(F)cc1` 66.8 (inactive)

Print Plasmodium falciparum NF54/iGP1_RE9H ulg8 stage V gametocytes gametocyte viability for `O=C(NO)c1ccc(CC(=O)N(CCO)c2ccccc2)cc1` . 88.9 (inactive)

Under Plasmodium falciparum NF54/iGP1_RE9H ulg8 stage V gametocytes: report gametocyte viability of Clc1ccc(-c2csc(NN=C3CCCC3)n2)cc1 [CPTH2 (hydrochloride)] . 98.4 (inactive)

State, for Plasmodium falciparum NF54/iGP1_RE9H ulg8 stage V gametocytes, measured gametocyte viability of the molecule listed here: `COc1cc(Br)c(Nc2nc(-c3c(C)nc4ncccn34)cs2)c(Br)c1` 94.5 (inactive)
